Data provenance is the RNAGym collection of RNA variant scans (doi:10.7554/elife.80360).

B1: CPEB3 Ribozyme (parent)
chain: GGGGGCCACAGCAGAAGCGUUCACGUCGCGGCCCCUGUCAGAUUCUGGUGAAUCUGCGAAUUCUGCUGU

variants of: B1; assay: self-cleavage, relative activity (ratio to wild type); higher = more cleavage; co-transcriptional
Value type: self-cleavage
// print number alone

GET /values?readout=self-cleavage&item= A23U C54A
0.901

GET /values?readout=self-cleavage&item= C29U G50C
0.321

GET /values?readout=self-cleavage&item= U36C A59C
0.42

GET /values?readout=self-cleavage&item= A16C C35U
0.17

GET /values?readout=self-cleavage&item= G30C G58U
0.579

GET /values?readout=self-cleavage&item= G19U U67G
0.546

GET /values?readout=self-cleavage&item= G47A U64C
0.974

GET /values?readout=self-cleavage&item= G31C C63G
0.133

GET /values?readout=self-cleavage&item= U43G U67G
0.867

GET /values?readout=self-cleavage&item= G37U U46G
0.263

GET /values?readout=self-cleavage&item= U38C C57G
0.369
